System: DMS-114
procedureDetails: NCI tumour cell line growth inhibition, 48 h
Active and inactive are the calls of the source. Cut-off read from the data, not from the text of the source: active = GI50 up to about 1.1 µM and inactive = higher.
Can you answer with just one of these options? active, inactive

Please review the entries below; each comes with its answer.
compound="CC(=O)O[C@@]12CO[C@@H]1C[C@@H](O)[C@@]1(C)C(=O)[C@H](O)C3=C(C)[C@@H](OC(=O)[C@H](O)[C@@H](NC(=O)c4ccccc4)c4ccccc4)C[C@@](O)([C@@H](OC(=O)c4ccccc4)C12)C3(C)C (stereo not given in full)" targetofassay=DMS-114 classification=active
compound=CN(C(=O)c1ccco1)C(=S)N1CCN(c2ccccc2)CC1 targetofassay=DMS-114 classification=inactive
compound=C/C(=N/O)c1ccc2c(c1)/C(=N/O)c1cc(/C(C)=N/O)ccc1-2 targetofassay=DMS-114 classification=inactive
compound="C=CCc1ccc(O)c(-c2cc(C3Oc4c(-c5cc(CC=C)ccc5O)cc(O)cc4[C@@H]3CO)ccc2O)c1 (stereo not given in full)" targetofassay=DMS-114 classification=inactive
compound=COc1ccc(NC(=O)CC/C(CC(=O)c2ccccc2Cl)=N\Nc2nnc(C)n2N)cc1 targetofassay=DMS-114 classification=inactive

**Query** Record lookup: outcome of this test for CC1=NN(C(=O)Nc2ccccc2)C(=O)C2CCC(=O)N12 (stereo not given) ?
**Result** inactive

**Query** Record lookup: outcome of this test for CCOC(=O)/C=C(/CN1C(=O)c2ccccc2C1=O)c1ccccc1 ?
**Result** inactive

**Query** Record lookup: outcome of this test for C=CCC1C(=O)CC2(C)CC(=O)C(CC=C)C12C (stereo not given) ?
**Result** inactive

**Query** Record lookup: outcome of this test for CCCNC(=O)C(C)(Cl)C(=O)c1ccccc1O (stereo not given) ?
**Result** inactive

###

System: RPMI-8226
procedureDetails: NCI tumour cell line growth inhibition, 48 h
Active and inactive are the calls of the source. Cut-off read from the data, not from the text of the source: active = GI50 up to about 1.1 µM and inactive = higher.
Kindly state GI50 for each of the entries shown.

Some compounds with known GI50 results, for comparison:
compound=COc1cccc2nc3c(C(=O)NCCN(C)C)cccc3cc12 assayvalue="1.21 µM (inactive)"
compound="CC1(C)COC2C(N(Cc3ccccc3)Cc3ccccc3)C(=O)N21 (stereo unspecified)" assayvalue="20.9 µM (inactive)"
compound="O=CC(O)C(O)C(O)C1CNC(=S)O1 (stereo unspecified)" assayvalue="> 100 µM (inactive)"
compound="CCCCCCCCCCCCCCCC(=O)NCC(COP(=O)([O-])OCC[N+](C)(C)C)OCC (stereo unspecified)" assayvalue="2.9 µM (inactive)"
compound=Nc1nc(=O)c(/N=N/c2ccccc2)c(N)[nH]1 assayvalue="> 100 µM (inactive)"

Please turn your attention to the following entry.
**Query** Which GI50 is listed for CC1COS(=O)N1c1ccccc1 (stereo unspecified) ?
**Result** > 100 µM (inactive)

###

System: SF-268
procedureDetails: NCI tumour cell line growth inhibition, 48 h
Active and inactive are the calls of the source. Cut-off read from the data, not from the text of the source: active = GI50 up to about 1.1 µM and inactive = higher.
Can you answer with just one of these options? T = active, F = inactive

Please review the entries below; each comes with its answer.
compound="COC1=NC(NC2OCC(O)C(O)C2O)=C(NC(C)=O)CN1C (stereo not drawn)" targetofassay=SF-268 classification=F
compound=Cn1c2ccccc2c2ccc3c(c21)C(=O)c1ccc2c4ccccc4n(C)c2c1C3=O targetofassay=SF-268 classification=F
compound="CC(=O)OCC(OC(C)=O)C(OC(C)=O)C(OC(C)=O)C(=O)CNn1c(-c2ccc(C)cc2)nc2ccccc2c1=O (stereo not drawn)" targetofassay=SF-268 classification=F
compound=ClCCC[Si]12OCCN(CCO1)CCO2 targetofassay=SF-268 classification=F
compound=Cc1cc(C)nc(NS(=O)(=O)c2ccc(NC(=O)c3ccc(Cl)c4c(Nc5ccc(S(=O)(=O)Nc6cc(C)on6)cc5)c5ccccc5nc34)cc2)n1 targetofassay=SF-268 classification=F

**Query** Record lookup: outcome of this test for CCN(CCCl)c1ccc(NC(=O)c2cc(C(=O)NCCN(C)C)cc(C(=O)Nc3ccc(N(CC)CCCl)cc3)c2)cc1 ?
**Result** T

**Query** Record lookup: outcome of this test for CC(C)OP(=O)(OC(C)C)C(C)(C)O ?
**Result** F

**Query** Record lookup: outcome of this test for CCN(CC)C(=S)SS(=O)(=O)c1ccc(F)cc1 ?
**Result** F

###

Test system: NCI-H522
procedureDetails: NCI tumour cell line growth inhibition, 48 h
The source made the active and inactive calls. Rule as the data show it: active = GI50 up to about 1.1 µM and inactive = higher.
recordedMetric: GI50

compound="CC(C)C12CCC3(CCC4C(C)(C(=O)O)CCCC4(C)C3C1)C(CN)C2 (stereo unspecified)" assayvalue="23.8 µM (inactive)"
compound=C=CCc1cccc2cc(C(=O)Nc3ccccc3)c(=N)oc12 assayvalue="10.4 µM (inactive)"
compound=CCOC(=O)COc1cccc2occc(=O)c12 assayvalue="> 100 µM (inactive)"
compound=CCOC(=O)c1s/c(=N\Nc2nc3ccccc3cc2C2OCCO2)n(Cc2ccccc2)c1C assayvalue="> 100 µM (inactive)"
compound=OC(CC(CC(O)(C(F)(F)F)C(F)(F)F)=NN=C(CC(O)(C(F)(F)F)C(F)(F)F)CC(O)(C(F)(F)F)C(F)(F)F)(C(F)(F)F)C(F)(F)F assayvalue="> 10 µM (inactive)"

**Query** Which GI50 is listed for COP(=O)(OC)[C@@](O)(c1ccccc1)[C@@H](O)[C@H](O)c1ccccc1 ?
**Result** > 100 µM (inactive)

###

Test system: Hs-578T
procedureDetails: NCI tumour cell line growth inhibition, 48 h
Active and inactive are the calls of the source. Rule as the data show it: active = GI50 up to about 1.1 µM and inactive = higher.
Can you answer with just one of these options? TRUE (active), FALSE (inactive)

chemicalsmiles=S=C(c1c[nH]c2ccccc12)N1CCN(c2ccccc2)CC1 classification=TRUE

**Query** Record lookup: outcome of this test for COCO[C@@H]1C[C@H]2C(=O)N(COC)c3ccccc3C(=O)N2C1 ?
**Result** FALSE

**Query** Record lookup: outcome of this test for O=C(c1cccs1)N(C(=S)OC12CC3CC(CC(C3)C1)C2)c1ccccc1 ?
**Result** FALSE

**Query** Record lookup: outcome of this test for COc1cc(/C=C2\N=C(c3ccccc3)N(c3nc4c(OC)ccc(OC)c4s3)C2=O)ccc1O ?
**Result** FALSE

**Query** Record lookup: outcome of this test for COCCOCCOC1=CC(=O)c2c(O)ccc(O)c2C1=O ?
**Result** FALSE

**Query** Record lookup: outcome of this test for CC1(C)OP(=O)(O)CC1=O ?
**Result** FALSE

###

Kindly state GI50 for each of the entries shown.
Test system: U-251
procedureDetails: NCI tumour cell line growth inhibition, 48 h
Activity calls are given as the source filed them. Rule as the data show it: active = GI50 up to about 1.1 µM and inactive = higher.

Some molecules with known GI50 results, for comparison:
molecule="Cc1ccc([N+](=O)[O-])cc1S(=O)(=O)Nc1ccc(C2=NN(C(=O)c3ccccc3)C(c3ccccc3O)C2)cc1 (centres undefined)" assayvalue="16.5 µM (inactive)"
molecule=CCC/C(Cl)=N\OC(=O)Nc1ccc(F)c([N+](=O)[O-])c1 assayvalue="18.3 µM (inactive)"

Please report GI50 for every entry that follows.
1. COC(=O)[C@@H]1COC(=O)N1
2. O=C1C[C@@H]2[C@@H](C=CC23CC3)N1O

**Result**
1. > 100 µM (inactive)
2. > 100 µM (inactive)

###

Test system: ACHN
procedureDetails: NCI tumour cell line growth inhibition, 48 h
Active and inactive are the calls of the source. Cut-off read from the data, not from the text of the source: active = GI50 up to about 1.1 µM and inactive = higher.
Can you answer with just one of these options? active, inactive

Please review the entries below; each comes with its answer.
compound=COC(=O)C1(C(=O)OC)Cc2ccc(C)cc2C2=C1C(=O)c1ccccc1C2=O targetofassay=ACHN classification=inactive
compound="COc1c(OC(C)=O)c(OC(C)=O)cc2c1-c1ccc(OC)c(=O)cc1C(NC(C)=O)CC2 (centres undefined)" targetofassay=ACHN classification=active
compound="C=C(Cl)/C(=C\\Cl)CCC(Cl)C(C)C (centres undefined)" targetofassay=ACHN classification=inactive
compound="C[N+](C)(C)CC1CCC/C1=N/O (centres undefined)" targetofassay=ACHN classification=inactive
compound=CC1(C)CC(=O)c2c(nc3c(ccc4ccccc43)c2-c2ccc(NC(=O)CCCCC(=O)Nc3ccc(-c4c5c(nc6c4ccc4ccccc46)CC(C)(C)CC5=O)cc3)cc2)C1 targetofassay=ACHN classification=inactive
compound=CC1(C)CC(=O)c2c(nc3c4c([nH]c(-c5ccc(Br)cc5)c24)CC(C)(C)C3)C1 targetofassay=ACHN classification=inactive
compound=NC1=CN(Cc2ccccc2)C2=N/C(=C\c3ccco3)C(=O)N12 targetofassay=ACHN classification=inactive
compound=Oc1cc(-c2cccc(OCc3ccccc3)c2)nc2cc3c(cc12)OCO3 targetofassay=ACHN classification=inactive
compound=Cc1c2ccnc(C(N)=O)c2c(C)c2c1[nH]c1ccccc12 targetofassay=ACHN classification=inactive
compound="C[C@H]1[C@H]2[C@H](C[C@@]3(C)C4=CC[C@H]5C(C)(C)[C@@H](OC6OCC(O)C(O)C6O)CC[C@@]56C[C@@]46CC[C@]23C)O[C@@]2(O)[C@@H]1OC(C)(C)[C@H]2O (some centres undefined)" targetofassay=ACHN classification=inactive

**Query** Record lookup: outcome of this test for CCOC(=O)c1cc2c(=Cc3ccc(N(C)C)cc3)c3ccccc3n2[n+]1C ?
**Result** inactive

**Query** Record lookup: outcome of this test for C(=N\c1ccc(-c2nc3ccccc3s2)cc1)/c1ccco1 ?
**Result** inactive

**Query** Record lookup: outcome of this test for CC1COS(=O)N1c1ccccc1 (centres undefined) ?
**Result** inactive

**Query** Record lookup: outcome of this test for Cc1cc(C)nc(NS(=O)(=O)c2ccc(NC(=O)c3ccc(Cl)c4c(Nc5ccc(S(=O)(=O)Nc6cc(C)on6)cc5)c5ccccc5nc34)cc2)n1 ?
**Result** inactive
